apparent KD of MS2 coat protein overview
System: MS2 coat protein
Experiment: apparent KD of MS2 coat protein; designed switch direction (-1 OFF switch, 1 ON switch): -1; higher = weaker reporter binding
Details: input ligand: FMN 200 uM
Write the value in nM as a bare number.

UGUUGUCGCGUAGGAUAUGAGGAUCACCCAUAUACAGGAUAUGAAAAGAAGGGUCUGAGGAUCACCCAGAAGGACGGGACAACU [pwkr exNG2 2xF5 2xFMN.28] (Eterna round: R96, puzzle: Exclusion NG 2): 1390
ACCUCACAUGAGGAUCACCCAUGUCAGGAUAUCCAACAUGCUCCCAGGACCAAGCAUAGGAGAAGGGACAUGCG (Eterna round: R97, puzzle: Exclusion 1): 76.5
ACGCGACAUGAGGAUCACCCAUGUGAGGAUAUGGCCUGUUUGUCGUGUGCUGGCUCUGUCAGAAGGCGCGUUGG [salish99_ex1_r4_042] (Eterna round: R97, puzzle: Exclusion 1): 255
ACAUGAGGAUCACCCAUGUCCGGCUGGUCCGUCUCGGCUGUCGAGGAUAUGGCUCGGUGUCCGCGCUAGAAGGUGGGAGCCGGU [Aenatbe mod 74] (Eterna round: R96, puzzle: Exclusion NG 3): 100

Could you now consider this next sequence?
[Q] // fetch apparent KD of MS2 coat protein given entry CAUUGUUAUCGAGGAUAUCGUAUUGAGAUUCUACGAGAAGGCGGACUAAACAUGAGGAUCACCCAUGUGAGACGGAUGCUUGGG [Ex NG1 #32] (Eterna round: R96, puzzle: Exclusion NG 1)
[A] 36.7
